target: HiBit-BRG1 (Homo sapiens, UniProt P51532); construct: expressed in transfected cells; assay: HiBit-BRG1 cell-based degradation assay (Nano-Glo HiBiT Lytic Detection); details: HeLa cells expressing HiBit-BRG1 and LgBit, 24 h; read-out: BRG1 HiBit Degradation IC50
Sequence (P51532 whole entry): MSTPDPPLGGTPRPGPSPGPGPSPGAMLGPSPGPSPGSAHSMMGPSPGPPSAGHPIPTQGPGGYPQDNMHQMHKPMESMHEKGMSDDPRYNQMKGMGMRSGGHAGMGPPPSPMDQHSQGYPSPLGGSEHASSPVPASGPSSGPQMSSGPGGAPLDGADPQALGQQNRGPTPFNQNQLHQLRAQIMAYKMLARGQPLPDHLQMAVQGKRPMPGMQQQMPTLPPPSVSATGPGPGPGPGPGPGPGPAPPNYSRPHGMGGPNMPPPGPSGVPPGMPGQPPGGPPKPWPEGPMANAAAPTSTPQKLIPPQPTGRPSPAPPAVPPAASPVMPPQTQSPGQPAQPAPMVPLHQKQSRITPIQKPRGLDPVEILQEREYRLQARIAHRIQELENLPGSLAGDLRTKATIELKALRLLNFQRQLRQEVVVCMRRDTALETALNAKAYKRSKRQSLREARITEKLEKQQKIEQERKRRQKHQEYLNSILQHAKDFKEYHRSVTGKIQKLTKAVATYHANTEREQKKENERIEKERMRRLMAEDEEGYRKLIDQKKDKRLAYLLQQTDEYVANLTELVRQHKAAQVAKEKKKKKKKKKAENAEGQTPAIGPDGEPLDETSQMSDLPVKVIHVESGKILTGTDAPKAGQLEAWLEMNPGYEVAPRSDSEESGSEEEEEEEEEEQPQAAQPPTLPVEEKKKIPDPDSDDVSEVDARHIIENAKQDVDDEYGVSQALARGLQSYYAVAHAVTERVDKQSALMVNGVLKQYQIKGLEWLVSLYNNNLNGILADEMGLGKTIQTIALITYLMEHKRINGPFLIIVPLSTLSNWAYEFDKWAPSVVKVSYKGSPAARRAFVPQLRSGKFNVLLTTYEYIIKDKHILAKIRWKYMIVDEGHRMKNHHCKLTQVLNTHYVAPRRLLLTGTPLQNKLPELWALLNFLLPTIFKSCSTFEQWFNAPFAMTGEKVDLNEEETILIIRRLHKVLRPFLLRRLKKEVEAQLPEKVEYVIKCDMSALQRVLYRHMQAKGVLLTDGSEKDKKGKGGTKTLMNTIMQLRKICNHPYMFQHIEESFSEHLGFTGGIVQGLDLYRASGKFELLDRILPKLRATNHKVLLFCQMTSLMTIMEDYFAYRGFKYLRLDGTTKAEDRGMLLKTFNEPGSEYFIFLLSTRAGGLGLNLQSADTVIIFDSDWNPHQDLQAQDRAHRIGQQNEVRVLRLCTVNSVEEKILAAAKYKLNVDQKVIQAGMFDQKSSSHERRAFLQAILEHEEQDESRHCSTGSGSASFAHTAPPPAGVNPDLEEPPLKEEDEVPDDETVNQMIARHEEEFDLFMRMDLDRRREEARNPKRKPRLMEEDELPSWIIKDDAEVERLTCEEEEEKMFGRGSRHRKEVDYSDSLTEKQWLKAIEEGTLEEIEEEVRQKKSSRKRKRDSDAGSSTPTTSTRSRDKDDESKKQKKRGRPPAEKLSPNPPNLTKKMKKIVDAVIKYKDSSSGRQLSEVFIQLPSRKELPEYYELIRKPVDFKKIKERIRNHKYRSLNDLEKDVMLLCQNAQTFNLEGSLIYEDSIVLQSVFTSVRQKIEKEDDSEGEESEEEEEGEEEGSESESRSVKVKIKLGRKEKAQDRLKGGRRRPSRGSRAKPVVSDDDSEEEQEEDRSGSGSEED
assay.endpoint: DC50

Recorded DC50 for Cc1ncsc1-c1ccc(CNC(=O)[C@@H]2C[C@@H](O)CN2C(=O)[C@@H](NC(=O)CCCOCCOCCNC(=O)c2ccc(CCOc3cc(-c4ccccc4O)nnc3N)cc2)C(C)(C)C)cc1 [Compound 24] , please?
> 1000 nM

# query: DC50 of entry Cc1ncsc1-c1ccc(CNC(=O)[C@@H]2C[C@@H](O)CN2C(=O)[C@@H](NC(=O)CCN2CCN(CCC(=O)NCc3ccc(CCOc4cc(-c5ccccc5O)nnc4N)cc3)CC2)C(C)(C)C)cc1 [Compound 189]
> 1000 nM

What does the record list as DC50 for Cc1ncsc1-c1ccc(CNC(=O)[C@@H]2C[C@@H](O)CN2C(=O)[C@@H](NC(=O)CCN2C[C@H]3CN(CCC(=O)NCc4ccc(CCOc5cc(-c6ccccc6O)nnc5N)cc4)C[C@H]3C2)C(C)(C)C)cc1 [Compound 235] ?
> 1000 nM

For the molecule Cc1ncsc1-c1ccc(CNC(=O)[C@@H]2C[C@@H](O)CN2C(=O)[C@@H](NC(=O)CCN2CC3=C(C2)CN(C(=O)c2ccc(CCOc4cc(-c5ccccc5O)nnc4N)cc2)C3)C(C)(C)C)cc1 [Compound 219] , what DC50 is on record?
> 1000 nM

Reported DC50, molecule Cc1ncsc1-c1ccc([C@H](C)NC(=O)[C@@H]2C[C@@H](O)CN2C(=O)[C@@H](c2cc(OCCN3CC(C4CN(C(=O)c5ccc(CCOc6cc(-c7ccccc7O)nnc6N)cc5)C4)C3)no2)C(C)C)cc1 [Compound 222] : ____
> 100 nM

----------
molecular target: HiBit-BRG1 (Homo sapiens, UniProt P51532); construct: expressed in transfected cells; assay: HiBit-BRG1 cell-based degradation assay (Nano-Glo HiBiT Lytic Detection); conditions: HeLa cells expressing HiBit-BRG1 and LgBit, 24 h; read-out: BRG1 HiBit Degradation Maximum (%)
# Dmax listing for each entry below

What does the record list as Dmax for `Cc1ncsc1-c1ccc(CNC(=O)[C@@H]2C[C@@H](O)CN2C(=O)[C@@H](NC(=O)CCN2CC3(CN(CCC(=O)NCc4ccc(CCOc5cc(-c6ccccc6O)nnc5N)cc4)C3)C2)C(C)(C)C)cc1` ?
< 50%

So what's the measured Dmax for this one? `Cc1ncsc1-c1ccc([C@H](C)NC(=O)[C@@H]2C[C@@H](O)CN2C(=O)[C@@H](NC(=O)CCCCCCCCCCCCCCCC(=O)N(C)Cc2ccc(CCOc3cc(-c4ccccc4O)nnc3N)cc2)C(C)(C)C)cc1`
> 75%

Report Dmax for Nc1nnc(-c2ccccc2O)cc1OCCc1ccc(CNC(=O)CCCCCCCCNc2cccc3c2C(=O)N(C2CCC(=O)NC2=O)C3=O)cc1 (stereo not drawn) please.
< 50%

----------
Overview of recorded DC50 for various compounds
biological target: HiBiT-BRM (Homo sapiens, UniProt P51531); construct: expressed in transfected cells; test: HiBiT-BRM cell-based degradation assay (Nano-Glo HiBiT Lytic Detection); details: HeLa cells expressing HiBiT-BRM, 24 h; read-out: BRM HiBit Degradation IC50
Sequence (P51531 whole entry): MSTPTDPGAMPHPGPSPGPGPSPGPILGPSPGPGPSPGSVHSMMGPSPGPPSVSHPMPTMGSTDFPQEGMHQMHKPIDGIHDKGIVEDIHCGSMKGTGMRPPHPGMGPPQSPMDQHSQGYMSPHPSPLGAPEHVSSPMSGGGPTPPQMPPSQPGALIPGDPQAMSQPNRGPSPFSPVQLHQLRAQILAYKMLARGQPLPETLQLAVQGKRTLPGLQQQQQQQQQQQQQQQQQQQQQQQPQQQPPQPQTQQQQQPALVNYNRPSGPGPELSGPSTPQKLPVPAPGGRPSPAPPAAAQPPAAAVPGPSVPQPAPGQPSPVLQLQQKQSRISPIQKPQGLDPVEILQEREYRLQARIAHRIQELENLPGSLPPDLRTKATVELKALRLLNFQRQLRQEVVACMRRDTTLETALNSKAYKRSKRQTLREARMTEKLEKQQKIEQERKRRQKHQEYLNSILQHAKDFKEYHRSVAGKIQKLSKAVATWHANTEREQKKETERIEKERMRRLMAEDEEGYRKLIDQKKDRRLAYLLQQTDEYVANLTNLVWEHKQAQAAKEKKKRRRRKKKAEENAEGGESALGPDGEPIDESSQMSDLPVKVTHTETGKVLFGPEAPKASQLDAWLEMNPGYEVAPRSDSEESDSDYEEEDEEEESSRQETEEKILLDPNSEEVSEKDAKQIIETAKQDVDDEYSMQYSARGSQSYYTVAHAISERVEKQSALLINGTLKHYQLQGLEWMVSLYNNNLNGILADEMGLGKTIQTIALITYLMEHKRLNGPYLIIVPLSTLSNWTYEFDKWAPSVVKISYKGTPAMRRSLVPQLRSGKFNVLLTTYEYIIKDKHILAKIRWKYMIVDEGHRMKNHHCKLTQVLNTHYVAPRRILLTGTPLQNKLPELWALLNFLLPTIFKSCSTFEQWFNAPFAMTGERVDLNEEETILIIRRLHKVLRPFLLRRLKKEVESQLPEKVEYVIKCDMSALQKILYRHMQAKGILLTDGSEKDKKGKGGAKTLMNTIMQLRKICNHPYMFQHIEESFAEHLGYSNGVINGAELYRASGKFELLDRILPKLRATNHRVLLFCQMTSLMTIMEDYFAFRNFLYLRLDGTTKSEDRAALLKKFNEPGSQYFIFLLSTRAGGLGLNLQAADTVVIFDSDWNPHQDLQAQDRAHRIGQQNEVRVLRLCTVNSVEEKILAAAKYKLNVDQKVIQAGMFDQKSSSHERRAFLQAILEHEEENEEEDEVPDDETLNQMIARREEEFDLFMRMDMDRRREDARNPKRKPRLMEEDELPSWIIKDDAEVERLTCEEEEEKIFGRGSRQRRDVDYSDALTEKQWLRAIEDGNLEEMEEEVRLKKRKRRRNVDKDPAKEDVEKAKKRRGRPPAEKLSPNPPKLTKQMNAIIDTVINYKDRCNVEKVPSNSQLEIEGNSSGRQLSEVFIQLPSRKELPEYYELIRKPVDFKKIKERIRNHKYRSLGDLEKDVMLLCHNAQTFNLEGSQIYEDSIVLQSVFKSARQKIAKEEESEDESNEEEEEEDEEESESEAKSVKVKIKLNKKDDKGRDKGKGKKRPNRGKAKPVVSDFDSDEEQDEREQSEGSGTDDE

Nc1nnc(-c2ccccc2O)cc1OCCc1ccc(C(=O)NCCCCCNc2cccc3c2C(=O)N(C2CCC(=O)NC2=O)C3=O)cc1 (stereo not shown) [Compound 50] : > 1 µM
Cc1ncsc1-c1ccc(CNC(=O)[C@@H]2C[C@@H](O)CN2C(=O)[C@@H](NC(=O)CCCCCCCCCCCCCC(=O)NCc2ccc(CCOc3cc(-c4ccccc4O)nnc3N)cc2)C(C)(C)C)cc1 [Compound 35] : > 0.01 µM
Cc1ncsc1-c1ccc(CNC(=O)[C@@H]2C[C@@H](O)CN2C(=O)[C@@H](NC(=O)CCN2CC3(C2)CN(C(=O)c2ccc(CCOc4cc(-c5ccccc5O)nnc4N)cc2)C3)C(C)(C)C)cc1 [Compound 200] : > 1 µM
Cc1ncsc1-c1ccc(CNC(=O)[C@@H]2C[C@@H](O)CN2C(=O)[C@@H](NC(=O)CCC(=O)NCc2ccc(CCOc3cc(-c4ccccc4O)nnc3N)cc2)C(C)(C)C)cc1 [Compound 29] : > 1 µM
Cc1ncsc1-c1ccc([C@H](C)NC(=O)[C@@H]2C[C@@H](O)CN2C(=O)[C@@H](NC(=O)CCCCCCCCCCCCCC(=O)NCc2ccc(CCOc3cc(-c4ccccc4O)nnc3N)cc2)C(C)C)cc1 [Compound 246] : > 0.01 µM
Cc1ncsc1-c1ccc(CNC(=O)[C@@H]2C[C@@H](O)CN2C(=O)[C@@H](NC(=O)CCN2C[C@@H]3[C@H](C2)[C@H]3C(=O)NCc2ccc(CCOc3cc(-c4ccccc4O)nnc3N)cc2)C(C)(C)C)cc1 [Compound 184] : > 1 µM
Nc1nnc(-c2ccccc2O)cc1OCCc1ccc(CNC(=O)CCCCCCCCNc2ccc3c(c2)C(=O)N(C2CCC(=O)NC2=O)C3=O)cc1 (stereo not shown) [Compound 73] : > 1 µM
Nc1nnc(-c2ccccc2O)cc1OCCc1ccc(CNC(=O)CCNc2cccc3nnn(C4CCC(=O)NC4=O)c(=O)c23)cc1 (stereo not shown) [Compound 111] : > 1 µM

Form field: reported DC50 of Nc1nnc(-c2ccccc2O)cc1N1CCN(CCNC(=O)CCOCCOCCNc2cccc3c2C(=O)N(C2CCC(=O)NC2=O)C3=O)CC1 (stereo not shown) [Compound 93]
> 1 µM

Endpoint output: DC50 of Cc1ncsc1-c1ccc([C@H](C)NC(=O)[C@@H]2C[C@@H](O)CN2C(=O)[C@@H](c2cc(OCCN3CC4CN(C(=O)c5ccc(CCOc6cc(-c7ccccc7O)nnc6N)cc5)C4C3)no2)C(C)C)cc1 (stereo partly shown) [Compound 240] . Value?
> 0.1 µM

Attribution: patent US20230150974A1
